Source of measurements: ChEMBL document CHEMBL3797154

experiment: Cytotoxic activity against human THP1 cells assessed as reduction in cell viability incubated for 48 hrs by […] based assay
Design: species or system THP-1
measurement_context: THP1 cells
Kindly state GI50 at 48 h for each of the entries shown.
Numbers only, in µg/mL.

Before answering, review these 2 worked examples.
molecule | endpoint | numeric_value
Cc1cc(CN2CCN(C3C[C@@H]4CC[C@H]3C4)CC2)c(C)n1-c1ccc(Cl)cc1 (mixture of isomers) | GI50 at 48 h | 16
Cc1cc(CN2CCN(C3C4CC5CC(C4)CC3C5)CC2)c(C)n1-c1ccc(C(C)C)cc1 (stereo not drawn) | GI50 at 48 h | 72

Now examine the next entry.
-- ask I would be grateful if you could share the reported GI50 at 48 h for Cc1cc(CN2CCN(C3C4CC5CC(C4)CC3C5)CC2)c(C)n1-c1ccc(Cl)cc1 (stereo not drawn) .
-- reply 32

----------
Kindly state selectivity ratio for each of the entries shown.
experiment: Selectivity index, ratio of GIC50 for cytotoxicity against mouse RAW264.7 cells to MIC for Mycobacterium tuberculosis H37Rv ATTC 27294
Format: toxicity, cell-based
measurement_context: read-out: Selectivity Index
One number for each entry.

Before answering, review these 3 worked examples.
compound | endpoint | numeric_value
Cc1cc(CNCCc2ccccc2)c(C)n1-c1ccc(Cl)cc1 | selectivity ratio | 10
Cc1cc(CN2CCN(C3CCCCC3)CC2)c(C)n1-c1ccc(Cl)cc1 | selectivity ratio | 1.4
Cc1cc(CNCc2ccc(Cl)cc2)c(C)n1-c1ccc(Cl)cc1 | selectivity ratio | 0.006

Field: selectivity ratio. Fill in for each record below.
1. Cc1cc(CNCc2ccccc2)c(C)n1-c1ccc(F)cc1
2. Cc1ccc(CNCc2cc(C)n(-c3ccc(Cl)cc3)c2C)cc1
3. Cc1cc(CNC2C3CC4CC(C3)CC2C4)c(C)n1-c1ccc(Cl)cc1 (stereo unspecified)
4. Cc1cc(CN2CCN(C3C[C@@H]4CC[C@H]3C4)CC2)c(C)n1-c1ccc(Cl)cc1 (mixture of isomers)
5. Cc1cc(CN2CCN(C3C4CC5CC(C4)CC3C5)CC2)c(C)n1-c1ccccc1F (stereo unspecified)
6. Cc1cc(CN2CCN(C3C4CC5CC(C4)CC3C5)CC2)c(C)n1-c1ccc(C(C)C)cc1 (stereo unspecified)
7. Cc1c(CN2CCN(c3ccccc3)CC2)c(CN2CCN(c3ccccc3)CC2)c(C)n1-c1ccc(Cl)cc1

-- reply
5.6
0.1
10
2.9
2.8
5.7
16

----------
Kindly state Activity for each of the entries shown.
Test system: Mycolicibacterium aurum
experiment: Inhibition of multidrug resistance efflux pump in Mycobacterium aurum ATCC 23366 assessed as inhibition of ethidium bromide efflux by measuring relative fluorescence units for ethidium bromide accumulation at 1/4 times MIC incubated for 60 mins by fluorimetric assay
Answers are plain numbers, in RFU.

Before answering, review these 2 worked examples.
smiles_repr | unit_descriptor | Activity
Cc1cc(CNC2CCCCC2)c(C)n1-c1ccc(Cl)cc1 | RFU | 2
Cc1c(CN2CCN(c3ccccc3)CC2)cc(-c2ccc(Cl)cc2)n1-c1ccc(Cl)cc1 | RFU | 2

Now examine the next entry.
-- ask I'm curious: which Activity was measured for Cc1c(CNC2CCCCC2)cc(-c2ccc(Cl)cc2)n1-c1ccc(Cl)cc1 tested on Mycolicibacterium aurum?
-- reply 2

----------
Kindly state selectivity ratio for each of the entries shown.
experiment: Selectivity index, ratio of GIC50 for cytotoxicity against human THP1 cells to MIC for Mycobacterium tuberculosis H37Rv ATTC 27294
Assay type: toxicity, cell-based, THP-1
measurement_context: read-out: Selectivity Index
Answers are plain numbers.

Before answering, review these 8 worked examples.
compound | selectivity ratio
Cc1cc(CNC2CCCCC2)c(C)n1-c1ccc(Cl)cc1 | 37
Cc1c(CN2CCN(C)CC2)cc(-c2ccc(Cl)cc2)n1-c1ccc(Cl)cc1 | 3.23
Cc1cc(CN2CCN(C34CC5CC(CC(C5)C3)C4)CC2)c(C)n1-c1ccc(Cl)cc1 | 1
Cc1cc(CN2CCN(c3ccccc3)CC2)c(C)n1-c1ccc(Cl)cc1 | 3.2
Cc1c(CN2CCN(C34CC5CC(CC(C5)C3)C4)CC2)cc(-c2ccc(Cl)cc2)n1-c1ccc(Cl)cc1 | 4.5
Cc1ccc(CNCc2cc(C)n(-c3ccc(Cl)cc3)c2C)cc1 | 6.1
Cc1c(CN2CCN(C3C4CC5CC(C4)CC3C5)CC2)cc(-c2ccc(Cl)cc2)n1-c1ccc(Cl)cc1 (centres undefined) | 8.1
Cc1c(CN2CCN(C3CC4CCC3C4)CC2)cc(-c2ccc(Cl)cc2)n1-c1ccc(Cl)cc1 (mixture of isomers) | 6.7

Field: selectivity ratio. Fill in for each record below.
1. Cc1cc(CN2CCN(C3C4CC5CC(C4)CC3C5)CC2)c(C)n1-c1ccc(C(C)C)cc1 (centres undefined)
2. Cc1cc(CNCCc2ccccc2)c(C)n1-c1ccc(Cl)cc1
3. Cc1cccc(-n2c(C)cc(CN3CCN(C4C5CC6CC(C5)CC4C6)CC3)c2C)c1 (centres undefined)
4. Cc1cc(CN2CCN(C3CCCCC3)CC2)c(C)n1-c1ccc(Cl)cc1
5. Cc1c(CN2CCN(c3ccccc3)CC2)c(CN2CCN(c3ccccc3)CC2)c(C)n1-c1ccc(Cl)cc1

-- reply
[4.5, 7.3, 2.3, 4.1, 3.6]

Field: selectivity ratio. Fill in for each record below.
1. Cc1c(CN2CCN(c3ccccc3)CC2)cc(-c2ccc(Cl)cc2)n1-c1ccc(Cl)cc1
2. Cc1cc(CNCc2ccccc2)c(C)n1-c1ccc(F)cc1
3. Cc1c(CNCc2ccccc2)cc(-c2ccc(Cl)cc2)n1-c1ccc(Cl)cc1
4. Cc1cc(CNC2C3CC4CC(C3)CC2C4)c(C)n1-c1ccc(Cl)cc1 (centres undefined)

-- reply
1. 155
2. 28
3. 6.1
4. 7.8

----------
experiment: Cytotoxic activity against mouse RAW264.7 cells assessed as reduction in cell viability incubated for 48 hrs by […] based assay
// classify: if (GI50 at 48 h < 10 µg/mL) Yes else No

compound | group
Cc1c(CN2CCN(C3C4CC5CC(C4)CC3C5)CC2)cc(-c2ccc(Cl)cc2)n1-c1ccc(Cl)cc1 (stereo unspecified) | No
Cc1cc(CNOCc2ccccc2)c(C)n1-c1ccc(F)cc1 | No
Cc1cc(CN2CCN(C34CC5CC(CC(C5)C3)C4)CC2)c(C)n1-c1ccc(Cl)cc1 | Yes
Cc1cc(CNC2C3CC4CC(C3)CC2C4)c(C)n1-c1ccc(Cl)cc1 (stereo unspecified) | No

-- ask Take the compound Cc1cc(CN2CCN(C3C4CC5CC(C4)CC3C5)CC2)c(C)n1-c1ccccc1F (stereo unspecified) and say whether its GI50 at 48 h is less than 10 µg/mL.
-- reply No

-- ask Take the compound Cc1cc(CN2CCN(C3C4CC5CC(C4)CC3C5)CC2)c(C)n1-c1ccc(C(C)C)cc1 (stereo unspecified) and say whether its GI50 at 48 h is less than 10 µg/mL.
-- reply No
